Cited source for all entries: patent US11578055B2

assay: In Vitro Microsome Stability Assay (monkey); format: in vitro ADME; conditions: monkey, 30 min, NADPH
Where a name gives a salt, the structure may show the parent alone.
Tag: 1 if measured Liver Microsome Stability-% Left after 30 min w/ NADPH (%) Monkey is not below 1%, -1 if it is.

API: above_or_equal(metric=Liver Microsome Stability-% Left after 30 min w/ NADPH (%) Monkey, cutoff=1%) for item CC1CN(S(=O)(=O)c2ccc(N(C)C)cc2)CCCN(CC2CCCCC2)CCCN(S(=O)(=O)N2CCC(c3ccccc3)CC2)C1 (stereo not shown) [A44, hydrochloride]
1

Would you kindly repeat that for C=C1CN(S(=O)(=O)c2ccc(N(C)C)cc2)CCCN(CC2CCCCC2)CCCN(S(=O)(=O)N2CCc3cc(C#N)ccc3C2)C1 [A70] ?
1

Would you kindly repeat that for C=C1CN(S(=O)(=O)c2ccc(N(C)C)cc2)CCCN(CC2CCCCC2)CCCN(S(=O)(=O)N2Cc3ccc(Cl)cc3C2)C1 [A89] ?
1

Would you kindly repeat that for Cc1ccc(S(=O)(=O)N2CCCN(CC3CCCCC3)CCCN(S(=O)(=O)c3ccc(N(C)C)cc3)CCC2)cc1 [A14] ?
1

Would you kindly repeat that for O=S(=O)(N1CCCCC1)N1CCCN(Cc2ccccc2)CCCN(S(=O)(=O)N2CCCCC2)CC2(CC2)C1 [A18, hydrochloride] ?
-1

Would you kindly repeat that for C=C1CN(S(=O)(=O)c2ccc(N(C)C)cc2)CCCN(CC2CCCCC2)CCCN(S(=O)(=O)N2CCC(n3cccn3)CC2)C1 [A79] ?
-1

Would you kindly repeat that for C=C1CN(S(=O)(=O)c2ccc(C)cc2)CCCN(CC2CCCCC2)CCCN(S(=O)(=O)C2CCCCC2)C1 [A5] ?
-1

Would you kindly repeat that for C=C1CN(S(=O)(=O)c2ccc(N(C)C)cc2)CCCN(CC2CCCCC2)CCCN(S(=O)(=O)N2CCN(c3ccc(Cl)cc3)CC2)C1 [A85] ?
1

Would you kindly repeat that for C=C1CN(S(=O)(=O)c2ccc(N(C)C)cc2)CCCN(CC2CCCCC2)CCCN(S(=O)(=O)N2CCC[C@H](c3ccccc3)C2)C1 [A49] ?
1

Would you kindly repeat that for C[C@H]1CN(S(=O)(=O)c2ccc(N(C)C)cc2)CCCN(CC2CCCCC2)CCCN(S(=O)(=O)N2CC[C@H](c3ccccc3)C2)C1 [A91] ?
1

Would you kindly repeat that for C=C1CN(S(=O)(=O)c2ccc(N(C)C)cc2)CCCN(CC2CCCCC2)CCCN(S(=O)(=O)N2CCc3cc(Cl)ccc3C2)C1 [A53] ?
1

Would you kindly repeat that for C=C1CN(S(=O)(=O)c2ccc(N(C)C)cc2)CCCN(CC2CCCCC2)CCCN(S(=O)(=O)N2CCc3cc(Br)ccc3C2)C1 [A60] ?
1

Would you kindly repeat that for COc1cccc(S(=O)(=O)N2CCCN(CC3CCCCC3)CCCN(S(=O)(=O)N3CCCCC3)CC3(CC3)C2)c1 [A32] ?
-1

Would you kindly repeat that for COc1ccccc1S(=O)(=O)N1CCCN(CC2CCCCC2)CCCN(S(=O)(=O)N2CCCCC2)CC2(CC2)C1 [A33] ?
-1

Would you kindly repeat that for Cc1cccc(N2CCN(S(=O)(=O)N3CCCN(CC4CCCCC4)CCCN(S(=O)(=O)c4ccc(N(C)C)cc4)C[C@H](C)C3)CC2)c1 [A98] ?
1

Would you kindly repeat that for C[C@H]1CN(S(=O)(=O)c2ccc(N(C)C)cc2)CCCN(CC2CCCCC2)CCCN(S(=O)(=O)N2CCN(c3ccccc3F)CC2)C1 [A94] ?
1

Would you kindly repeat that for C=C1CN(S(=O)(=O)c2ccc(N(C)C)cc2)CCCN(CC2CCCCC2)CCCN(S(=O)(=O)N2CCc3cc(F)ccc3C2)C1 [A59] ?
1

Would you kindly repeat that for C=C1CN(S(=O)(=O)c2ccc(N(C)C)cc2)CCCN(CC2CCCCC2)CCCN(S(=O)(=O)N2CCc3c(Cl)cccc3C2)C1 [A54] ?
1

Would you kindly repeat that for CO/N=C1/CN(S(=O)(=O)c2ccc(N(C)C)cc2)CCCN(CC2CCCCC2)CCCN(S(=O)(=O)N2CCC(c3ccccc3)CC2)C1 [A88] ?
1
